Sourced from the supplement of paper PMC3334620

Target: Yer064c (UniProt P40041)
Sequence: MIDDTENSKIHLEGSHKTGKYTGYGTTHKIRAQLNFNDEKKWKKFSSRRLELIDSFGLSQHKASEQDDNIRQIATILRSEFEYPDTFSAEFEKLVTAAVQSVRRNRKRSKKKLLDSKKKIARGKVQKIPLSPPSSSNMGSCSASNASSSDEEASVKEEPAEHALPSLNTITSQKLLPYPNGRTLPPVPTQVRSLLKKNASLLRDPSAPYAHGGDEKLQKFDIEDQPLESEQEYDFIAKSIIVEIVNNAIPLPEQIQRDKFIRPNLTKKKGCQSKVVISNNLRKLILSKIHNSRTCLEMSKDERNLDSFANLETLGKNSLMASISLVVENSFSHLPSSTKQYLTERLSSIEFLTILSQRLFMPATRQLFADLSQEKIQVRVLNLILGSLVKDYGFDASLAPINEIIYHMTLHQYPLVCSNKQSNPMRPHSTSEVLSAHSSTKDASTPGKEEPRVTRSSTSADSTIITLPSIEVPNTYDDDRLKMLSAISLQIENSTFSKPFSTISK
Experiment: PBM E-score (8-mer binding enrichment) (E-score (-0.5 to 0.5)); higher = stronger / more preferred TF binding
Details: protein concentration: 200 nM; construct: GST-full length
Whole data set: some 33,000 sequences, median “E-score (-0.5 to 0.5)” near -0.036, cut for the highest 2% near 0.37. The sample as a whole holds a higher share of the highest values than the screen did.
Listing of recorded PBM E-score by entry.

sequenceString | PBM E-score
CCGTTATC | 0.0125
ACTCCAAT | 0.238
CCCGAGGG | -0.0969
CACTTTGA | 0.184
GTGATTGA | 0.401
CCTTCAGC | -0.126
AGCGACTG | 0.255
AGTTTAGG | 0.0907
CTCGGCCC | -0.206
CGCGACTC | 0.438
ACGATTGC | 0.0745
AGAGCTGA | 0.0408
CGCTGCTA | -0.211
CTGATTGC | 0.274
GTCCGCAA | 0.00032
GCGATTGA | 0.145
ACAGCCTC | -0.308
CTGATTGA | 0.305
ATGTAACG | -0.038
CGCGACCC | -0.0841
ACAAGAGT | 0.149
ATGATTGC | 0.375
